molecular target: PBCV-1 GTase (Paramecium bursaria Chlorella virus 1, UniProt Q84424); experiment: Inhibition of the first step of the GTase reaction (E-GMP formation); format: biochemical; design: His-tag; made in house; settings: read-out: IC50 for E-GMP formation, 1st step; 0.2 pmol [α-32P] GTP, PBCV-1 GTase 10 µM, analogue up to 2 mM, pH 7.5, 1hr at 30°C
Sequence (Q84424 whole entry): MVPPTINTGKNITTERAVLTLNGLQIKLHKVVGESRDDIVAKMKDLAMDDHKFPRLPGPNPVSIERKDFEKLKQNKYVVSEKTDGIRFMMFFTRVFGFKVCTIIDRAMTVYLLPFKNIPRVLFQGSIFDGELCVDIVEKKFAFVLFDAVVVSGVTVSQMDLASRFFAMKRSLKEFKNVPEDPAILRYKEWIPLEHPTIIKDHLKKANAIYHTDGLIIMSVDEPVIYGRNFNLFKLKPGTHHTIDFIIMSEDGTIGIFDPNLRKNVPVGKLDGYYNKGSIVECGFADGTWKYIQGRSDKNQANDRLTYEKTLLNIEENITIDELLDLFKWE
In this section, each of the compounds is paired with its reported pIC50.
Quick note: pIC50 means taking -log10 of the concentration in moles per liter.

- Item smiles: "Cn1c(N)nc2c(ncn2[C@@H]2O[C@H](COP(=O)(O)OP(=O)(O)OP(=O)(O)O)[C@@H](O)[C@H]2O)c1=O"
  pIC50: 4.10
- Item smiles: "Nc1nc(Cl)c2ncn([C@@H]3O[C@H](COP(=O)(O)OP(=O)(O)OP(=O)(O)O)[C@@H](O)[C@H]3O)c2n1"
  pIC50: 3.80
- Item smiles: "O=c1[nH]cnc2c1ncn2[C@@H]1O[C@H](COP(=O)(O)OP(=O)(O)OP(=O)(O)O)[C@@H](O)[C@H]1O"
  pIC50: 3.47
- Item smiles: "Nc1nc2c(nc(Br)n2[C@@H]2O[C@H](COP(=O)(O)OP(=O)(O)OP(=O)(O)O)[C@@H](O)[C@H]2O)c(=O)[nH]1"
  pIC50: 2.82

Lab note: next compound to report on.
Inquiry: // returns reported pIC50 for input "COc1nc(N)nc2c1ncn2[C@@H]1O[C@H](COP(=O)(O)OP(=O)(O)OP(=O)(O)O)[C@@H](O)[C@H]1O"
Reply text: 3.82
